Origin of the recorded values: patent US7101878B1

# Tested target: human GnRH receptor (Homo sapiens)
# Construct: expressed in transfected cells; host or cells: HEK 293 (hGnRH-R/293, from Dr. Stuart Sealfon)
# Measurement notes: Radioligand binding, 125I-GnRH-A displacement, membranes of HEK 293 cells with human GnRH receptor
# Conditions: second value marked * (mostly in parentheses); asterisk not explained; read-out: hGnRH IC50, value marked *
Measurement type: IC50 (nM)
Numeric only. Scale: nM

Compound	IC50 / nM
Cc1cc2c(cc1Cc1ccc(C(=O)NCC3CCCC(CNc4nccc(NCC5CCCO5)n4)C3)o1)C(C)(C)CCC2(C)C (stereo not drawn)	80

compound `Cc1cnc(CNC(=O)c2ccc(Cc3cc4c(cc3C)C(C)(C)CCC4(C)C)o2)cn1` , IC50 observed: 40

compound `COc1ccc(CNC(=O)c2ccc(Cc3cc4c(cc3C)C(C)(C)CCC4(C)C)o2)cc1` , IC50 observed: 65

----------
Reported inhibition at 10 µM is given for each of the following compounds.
# Tested target: mouse GnRH receptor (Mus musculus, UniProt Q01776)
# Construct: expressed in transfected cells; host or cells: 293 cells
# Sequence (Q01776 1-327): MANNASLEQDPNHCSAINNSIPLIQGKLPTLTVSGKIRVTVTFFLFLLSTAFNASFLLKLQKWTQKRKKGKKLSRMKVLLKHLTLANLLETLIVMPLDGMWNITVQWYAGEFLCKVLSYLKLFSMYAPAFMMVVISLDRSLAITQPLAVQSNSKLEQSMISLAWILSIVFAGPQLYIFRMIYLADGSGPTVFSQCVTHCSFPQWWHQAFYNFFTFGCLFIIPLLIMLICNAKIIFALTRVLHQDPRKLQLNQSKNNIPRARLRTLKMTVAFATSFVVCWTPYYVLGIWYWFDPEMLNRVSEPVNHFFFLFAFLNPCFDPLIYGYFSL
# Measurement notes: Radioligand binding, 125I-GnRH-A, 293 cells expressing mouse GnRH receptors
# Conditions: 10 uM; read-out: % Inhib. @ 10 uM mGnRH
Numeric only. Scale: %

Compound	inhibition at 10 µM, %
Cc1cc2c(cc1Cc1ccc(C(=O)NCCCOC(C)C)o1)C(C)(C)CCC2(C)C [drawing 1487]	93
Cc1cc2c(cc1Cc1ccc(C(=O)N(CCCN(C)C)CCCN(C)C)o1)C(C)(C)CCC2(C)C [drawing 1254]	71
Cc1cc2c(cc1Cc1ccc(C(=O)NCCNc3cccc4ccccc34)o1)C(C)(C)CCC2(C)C [drawing 1449]	56
Cc1cc2c(cc1Cc1ccc(C(=O)N3CCN(C/C=C/c4ccccc4)CC3)o1)C(C)(C)CCC2(C)C	86
COc1cc2c(cc1OC)C(c1cccc(Br)c1)N(C(=O)c1ccc(Cc3cc4c(cc3C)C(C)(C)CCC4(C)C)o1)CC2 (stereo not shown)	-23
Cc1cc2c(cc1Cc1ccc(C(=O)N(CCCN3CCN(C)CC3)Cc3cc(C)n(-c4cccc(C(F)(F)F)c4)c3C)o1)C(C)(C)CCC2(C)C [drawing 1488]	102
Cc1cc2c(cc1Cc1ccc(C(=O)N(Cc3ccc(C(C)C)cc3)C3CCN(Cc4ccccc4)C3)o1)C(C)(C)CCC2(C)C (stereo not shown) [drawing 1564]	48
CCCCN(C)C(=O)c1ccc(Cc2cc3c(cc2C)C(C)(C)CCC3(C)C)o1 [drawing 1548]	100
CCN(Cc1ccccc1F)C(=O)c1ccc(Cc2cc3c(cc2C)C(C)(C)CCC3(C)C)o1	86
CCC1CCC(C)N(C(=O)c2ccc(Cc3cc4c(cc3C)C(C)(C)CCC4(C)C)o2)C1 (stereo not shown)	95

compound Cc1cc2c(cc1Cc1ccc(C(=O)N3CCC(CNC(=O)C(F)(F)F)CC3)o1)C(C)(C)CCC2(C)C [drawing 1308] , inhibition at 10 µM observed: 41

compound `CCN(CC)CCCN(C)C(=O)c1ccc(Cc2cc3c(cc2C)C(C)(C)CCC3(C)C)o1` , inhibition at 10 µM observed: 92

compound Cc1cc2c(cc1Cc1ccc(C(=O)NCCCO)o1)C(C)(C)CCC2(C)C [drawing 1417] , inhibition at 10 µM observed: 96

compound CCCCN(CCCC)CCCNC(=O)c1ccc(Cc2cc3c(cc2C)C(C)(C)CCC3(C)C)o1 [drawing 1242] , inhibition at 10 µM observed: 103

compound `CCN(CC)CCN1CCN(C(=O)c2ccc(Cc3cc4c(cc3C)C(C)(C)CCC4(C)C)o2)CC1` , inhibition at 10 µM observed: 98

compound `Cc1cc2c(cc1Cc1ccc(C(=O)N(CCCN3CCN(C)CC3)Cc3ccc(OCCCN(C)C)cc3)o1)C(C)(C)CCC2(C)C` , inhibition at 10 µM observed: 100

----------
# Tested target: UniProt:P30969
# Sequence (P30969 1-327): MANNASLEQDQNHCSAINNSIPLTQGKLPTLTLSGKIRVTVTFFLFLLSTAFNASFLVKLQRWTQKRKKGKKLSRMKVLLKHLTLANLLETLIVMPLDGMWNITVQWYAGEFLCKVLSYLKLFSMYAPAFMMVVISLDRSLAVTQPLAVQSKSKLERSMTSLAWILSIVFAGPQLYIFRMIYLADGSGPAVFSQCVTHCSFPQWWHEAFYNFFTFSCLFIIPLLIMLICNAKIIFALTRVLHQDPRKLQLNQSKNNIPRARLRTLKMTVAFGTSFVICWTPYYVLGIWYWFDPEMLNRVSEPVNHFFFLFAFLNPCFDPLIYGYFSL
# Measurement notes: Radioligand binding, 125I-GnRH-A, rat pituitary membranes
# Set-up: membranes were prepared from rat pituitary; from tissue; host or cells: rat pituitary
# Conditions: read-out: rGnRH IC50
I'd appreciate it if you marked entries yes (1) when IC50 is lower than 0.4 µM and no (0) when it is not.

Please review the following examples before continuing.
Compound	Tested target	Class assignment
COc1cc(OC)c(NC(=O)c2ccc(Cc3cc(-c4ccccc4)c(C)cc3C)o2)c(OC)c1 [Compound 302]	UniProt:P30969	yes (1)
Cc1cc2c(cc1Cc1ccc(C(=O)Nc3ccc(S(=O)(=O)Nc4ccc(Cl)nn4)cc3)o1)C(C)(C)CCC2(C)C [Compound 107]	UniProt:P30969	no (0)

Item Cc1cc2c(cc1Cc1ccc(C(=O)NCC3CCCCC3)o1)C(C)(C)CCC2(C)C [Compound 36] : IC50 beneath 0.4 µM, strictly? no (0)

----------
# Tested target: human GnRH receptor (Homo sapiens, UniProt P30968)
# Construct: expressed in transfected cells; host or cells: HEK 293 (hGnRH-R/293, from Dr. Stuart Sealfon)
# Measurement notes: Radioligand binding, 125I-GnRH-A displacement, membranes of HEK 293 cells with human GnRH receptor
# Conditions: 1 h, substrate remaining; 1 uM compound; closer to zero = closer to 100% inhibition; read-out: S%R 1 uM hGnRHR
Measurement type: remaining activity at 1 µM (%)
Numeric only. Scale: %

Compound	remaining activity at 1 µM / %
Cc1cc2c(cc1Cc1ccc(C(=O)NCc3ccccc3)o1)C(C)(C)CCC2(C)C [Compound 402]	18
Cc1cc2c(cc1Cc1ccc(C(=O)NC(CO)Cc3ccccc3)o1)C(C)(C)CCC2(C)C (centres unmarked) [Compound 420]	28
COc1cc(CNC(=O)c2ccc(Cc3cc4c(cc3C)C(C)(C)CCC4(C)C)o2)ccc1O [Compound 448]	46

compound Cc1cc2c(cc1Cc1ccc(C(=O)NCc3ccco3)o1)C(C)(C)CCC2(C)C [Compound 407] , remaining activity at 1 µM observed: 20

compound Cc1cc2c(cc1Cc1ccc(C(=O)NCc3cccc4ccccc34)o1)C(C)(C)CCC2(C)C [Compound 422] , remaining activity at 1 µM observed: 34

compound COc1cccc(CNC(=O)c2ccc(Cc3cc4c(cc3C)C(C)(C)CCC4(C)C)o2)c1OC [Compound 410] , remaining activity at 1 µM observed: 21

compound COc1ccc(CNC(=O)c2ccc(Cc3cc4c(cc3C)C(C)(C)CCC4(C)C)o2)c(OC)c1 [Compound 450] , remaining activity at 1 µM observed: 6

compound Cc1cc2c(cc1Cc1ccc(C(=O)NCc3ccccc3Br)o1)C(C)(C)CCC2(C)C [Compound 449] , remaining activity at 1 µM observed: 42

----------
# Tested target: human GnRH receptor (Homo sapiens, UniProt P30968)
# Construct: expressed in transfected cells; host or cells: HEK 293 (hGnRH-R/293, from Dr. Stuart Sealfon)
# Sequence (P30968 1-328): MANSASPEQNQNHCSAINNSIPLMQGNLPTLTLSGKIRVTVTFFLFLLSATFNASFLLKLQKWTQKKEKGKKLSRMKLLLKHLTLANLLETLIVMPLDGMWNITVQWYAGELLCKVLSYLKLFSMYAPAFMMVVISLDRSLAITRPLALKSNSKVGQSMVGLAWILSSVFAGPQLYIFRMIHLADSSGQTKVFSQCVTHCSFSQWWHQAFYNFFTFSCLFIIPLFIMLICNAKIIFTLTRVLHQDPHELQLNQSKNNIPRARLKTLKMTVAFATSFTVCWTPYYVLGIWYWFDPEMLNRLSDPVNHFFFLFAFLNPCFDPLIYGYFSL
# Measurement notes: Radioligand binding, 125I-GnRH-A displacement, membranes of HEK 293 cells with human GnRH receptor
# Conditions: 1 h, substrate remaining; 1 uM compound; closer to zero = closer to 100% inhibition; read-out: S%R 1 uM hGnRHR
Measurement type: remaining activity at 1 µM (%)
Numeric only. Scale: %

Line notation	remaining activity at 1 µM (%)
CCOc1ccccc1CNC(=O)c1ccc(Cc2cc3c(cc2C)C(C)(C)CCC3(C)C)o1	49
Cc1cc2c(cc1Cc1ccc(C(=O)NCc3ccc(Cl)cc3)o1)C(C)(C)CCC2(C)C	32
Cc1cc2c(cc1Cc1ccc(C(=O)NCc3ccc(F)cc3F)o1)C(C)(C)CCC2(C)C	22
Cc1cc2c(cc1Cc1ccc(C(=O)NCCc3ccc(F)cc3)o1)C(C)(C)CCC2(C)C	55
Cc1cc2c(cc1Cc1ccc(C(=O)NCc3cccc([N+](=O)[O-])c3)o1)C(C)(C)CCC2(C)C	24

Assay human GnRH receptor (Homo sapiens, UniProt P30968), sample `COc1cc(CCNC(=O)c2ccc(Cc3cc4c(cc3C)C(C)(C)CCC4(C)C)o2)cc(OC)c1` , remaining activity at 1 µM read: 55

Assay human GnRH receptor (Homo sapiens, UniProt P30968), sample `Cc1cc2c(cc1Cc1ccc(C(=O)NCCNc3ccccc3)o1)C(C)(C)CCC2(C)C` , remaining activity at 1 µM read: 30

Assay human GnRH receptor (Homo sapiens, UniProt P30968), sample `Cc1cc2c(cc1Cc1ccc(C(=O)NCCc3ccccc3Cl)o1)C(C)(C)CCC2(C)C` , remaining activity at 1 µM read: 42
